- Experiment summary: yeast display, Sf9 membrane polyspecificity reagent, FACS + sequencing; frameworks hold sequencing errors
Observed property: polyreactivity (PSR sort gate)

[[record]]
sequence_chain = "QVQLVESGGGLVQAGGSLRLSCAASGLIFYLYAMGWYRQAPGKEMELVAAISSGGSTYYADSVKGRFTISRDNAKNTVYLQMISLKPEDTAVYYCNARYYYVSGLQAYYYWGQGTQVTVSS"
reported = "high polyreactivity"

[[record]]
sequence_chain = "QVQLVESGGGLVQAGGSLRLSCAASGRISNNAMGWYRQAPGKERELVAAITYRGSSTYYADSVKGRFTISRDNAKNTFYLQMISLKPEDTAVYYCAAQRSYAYEYWGQGTQVTVSS"
reported = "high polyreactivity"

[[record]]
sequence_chain = "QVQLVESGGGLVQAGGSLRLSCAASGRIFQLYTMGWYIQAPGKERELVAAITSGTSTSYADSVKGRFTISRDNAKNTVYLQMNSLKPEDTAVYYCNKGSVSYSSVFVPYESDYWGQGTQVTVSS"
reported = "low polyreactivity"

[[record]]
sequence_chain = "QLQLVESGGGLVQAGGSLRLSCAASGSIFRVYAMGWYRQARGKERELVAAISSSGVRTSYADSVKGRFTISRDNAKNTVYLQMNSLKPEDTAVYYCADRYPYGYYHWGQGTQVTVSS"
reported = "high polyreactivity"

[[record]]
sequence_chain = "QVQLVESGGGLVQAGGSLRLSCAASGRTFSTYTMGWYRQAPGKERELVAAITSSGGGTYYADSVKGRFTISRDNAKNTVYLQMNSLKPEDTAVSYCGTVRTYRPPVRRGYWGQGTQVTVSS"
reported = "high polyreactivity"

[[record]]
sequence_chain = "QVQLVESGGGLVQAGGSLRLSCAASGSTFSSYAMGWYRQAPGKERELVAAISSSGGTSTYADSVKGRFTISRDNAKNTVYLQMNSLKPEDTAVYYCAARQYRRLRDYRHDYWGQGTQVTVSS"
reported = "high polyreactivity"

[[record]]
sequence_chain = "QFQLVESGGGLVQAGGSLRLSCAASGSILESNVMGWYRQAPGKERELVASISSSGVSTYADSVKGRFTISRDNAKNTVYLQMNSLKPEDNAVYYCAADRWYWTYALYYWGQGTQVTVSS"
reported = "low polyreactivity"

[[record]]
sequence_chain = "QVQLGESGGGLVQAGGSLRLSCAPSGSPFPYYVMGWYRPAPGKERELVAAISKSGGSTYYADSVKGRFTISRDNAKNTVYLQMNSLKPEDPAVYYCAAAIRSYRGPRFNYWGQGTQVTVSS"
reported = "high polyreactivity"

[[record]]
sequence_chain = "QVQLVESGGGLVQAGGSLRLSCAASGRTSNGYAMGWYRQAPGKERELVAAYADSVKGRFTISRDNAKNTVYLQMNSLKPEDTAVYYCNADYYPVSRVGYVYWAYYYWGQGTQVTVSS"
reported = "low polyreactivity"


* * *

- Experiment summary: yeast display, Sf9 membrane polyspecificity reagent, FACS + sequencing; frameworks hold sequencing errors
Observed property: polyreactivity (PSR sort gate)

[[record]]
sequence_chain = "QVQLVESGGGLVQAGGSLRLSCAASGSIFWYYAMGWYRQAPGKERELVAAISTSGTSTYYADSVKGRFTISRDNAKNTVYLQMNSLKPEDSAVYYCAKRSGARHRLMDYWGQGTQVTVSS"
reported = "low polyreactivity"

[[record]]
sequence_chain = "QVQLVESGGGLVQAGGSLRLSCAASGSTFIPNAMGWYRQAPGKERELVATIRSGGGRTYYADSVKGRFKISRDNAKNTVYLQMNSLKPEDTAVYYCAAGYYLSVQVYRFDYWGQGTQVTVSS"
reported = "high polyreactivity"

[[record]]
sequence_chain = "QVQLVESGGGLVQAGGSLRLSCAASGSTSTSNAMGWYRQAPGKERELVAVISSGGSTYYADSVKGRFTISRDNAKNTVYLQMNSLKPEDTAVYYCSADARIHWFVVRYEYWGQGTQVTVSS"
reported = "low polyreactivity"

[[record]]
sequence_chain = "QVQLVESGGGLVQAGGSLRLSCAASGSIFRYYAMGGYIQAPGKERELVAAISGDSGRTYYADSVKGRFTISRDNAKNTVYFQMNSLNPDDTAVYYCNARVAYRYRTGYDYWGQGTQVTVSS"
reported = "high polyreactivity"

[[record]]
sequence_chain = "QVQLVESGGGLVQAGGSLRLSCAASGLTFVAYGMGWYRQAPGKERELVATIRWRGGSTYYADSVKGRFTISRDNAKNTVYLQMNSLKPEDTAVYYCAATRARRWSSPGQYGYWGQGTQVTVSS"
reported = "high polyreactivity"

[[record]]
sequence_chain = "QVQLVESGGGLVQGGGSLRLSCAASGRTFRYYAMGWYRQAPGKERELVAAITRSGGSTYYADSVKGRFTISRDNAKYTVYLQMNSLKPEDTAVYYCAASRFTSYGIDYDYWAQGTQVTVSS"
reported = "high polyreactivity"

[[record]]
sequence_chain = "QVQLVESGGGLVQAGGSLRLSCAASGRTFPFYAMGWYRQAPVKEREFVAAITASGDSTYYADSVKGRFTISRDNAKYTVYLQMNSLKPEDTAVYYCAADLPVWYVTRYDYWGQGTQVTVSS"
reported = "low polyreactivity"

[[record]]
sequence_chain = "QVQLVESGGGLVQAGGSLRLSCAASGSIFLKYDMGWYRQAPGKERELVAAISRGGDTNYADSVKGLFTISRDNAKNCVYLQMNSLKPEDTAVYDCAARPGLYFTRRGRYYLGQGTQVTVSS"
reported = "high polyreactivity"

[[record]]
sequence_chain = "QVQLVESGGGLVQAGGSLRLSCAASGSTFLYYAKGWSRQAPGKERELVAAISGSGGSTYYADSVKGRFTISRDNAKNTVYLQMNSLKPEDTAVYYCNAVARRHGLGPYDYWGQGTQVTVSS"
reported = "high polyreactivity"

[[record]]
sequence_chain = "QVQLVESGGGLVQAGGSLRLSCAASGIIFVRYAMGWYIQAPGKERELVAAINSRGNTYYADSVKGRFTISRDNAKNSVYLQMNSLKPEDTAVYYCAKYNSWGQGTQVTVSS"
reported = "high polyreactivity"

[[record]]
sequence_chain = "QVQLVESGGGFFQAGGSLRLSCAASGTIGRNAMGWYRQAPGKESEFVPAISYRGTSTYYADSVKGRFTISRDNAKNTVYLQMKSLKPDDTAVYYCATYWAAGYRSRYDYWGQVTQVTVSS"
reported = "high polyreactivity"

[[record]]
sequence_chain = "QVQLVESGGGLVQAGGSLRLSCAASGRILGRNAMGWYRQAPGKEREFVAGISYSGTSTYYADSVKGRFTISRDNAKNTVYLQMNSLKPEDTAVYYCNVKNQVYRRYYYWGQGTQVTVSS"
reported = "high polyreactivity"

[[record]]
sequence_chain = "QVQLVESGGGLVQAGGSLRLSCAASGSIFGVYAMGWYRQAPGKERELVAVITYRDGSTYYADSVKGRFTISRVNAKNTVYLQMNSLKPEDSAVYYCAADSYLGWHSDYGVEYYYWGQGTQVTVSS"
reported = "low polyreactivity"

[[record]]
sequence_chain = "QVQLVESGGGLVQAGGSLRLSCAASGGTFPWYTMGWYRQAPGKERELVAAISVSGDSTHYADSVKGRFTISRDNAKNTVYLQMNSLKPEDTAVYYCAATYLVSSDKYDYWGQGTQVTVSS"
reported = "high polyreactivity"

[[record]]
sequence_chain = "QVQLEESGGGLVQAGGSLRLSCAASGRIFYYYTMGWYRQAPGKERELVAAISWGGVNTDYADSVKGRFTISRDNAKNTVYLQMNSLKPEDTAVYYCAAGRWSVGTYDYWGQGTQVTVSS"
reported = "low polyreactivity"

